- TESTED TARGET: MAGL protein (Homo sapiens, UniProt Q99685)
MEASURED METRIC: IC50 (nM)

Previously resolved entries follow.
- COMPOUND: "O=C(N1CC2(CC(Cc3cnn(C(F)(F)F)c3)C2)C1)N1CC2(CC(c3nc(C4CC4)n[nH]3)C2)C1"
  READING UNIT: "nM"
  IC50: 0.4
- COMPOUND: "CC(C)(C)n1nnc(C2(c3ccc(C4CN(C(=O)N5CC6(CC(c7nnc(C8CC8)[nH]7)C6)C5)C4)cc3)CC2)n1"
  READING UNIT: "nM"
  IC50: 0.06

[P] O=C(N1CC2(CCC(Cc3ccc(C(F)(F)F)nc3)C2)C1)N1CC2(CC(c3nnc(C4CC4)[nH]3)C2)C1 (stereo not shown)
[Q] O=C(N1CC(c2cnc(C3(C(F)(F)F)CC3)nc2)C1)N1CC2(CC(c3nnc(C4CC4)[nH]3)C2)C1
Could you tell me which of these two has the smaller IC50 figure? First: P Second: Q Use the label to indicate which entry you chose.
P

* * *

- TESTED TARGET: MAGL protein (Homo sapiens, UniProt Q99685)
- Sequence (Q99685 1-303): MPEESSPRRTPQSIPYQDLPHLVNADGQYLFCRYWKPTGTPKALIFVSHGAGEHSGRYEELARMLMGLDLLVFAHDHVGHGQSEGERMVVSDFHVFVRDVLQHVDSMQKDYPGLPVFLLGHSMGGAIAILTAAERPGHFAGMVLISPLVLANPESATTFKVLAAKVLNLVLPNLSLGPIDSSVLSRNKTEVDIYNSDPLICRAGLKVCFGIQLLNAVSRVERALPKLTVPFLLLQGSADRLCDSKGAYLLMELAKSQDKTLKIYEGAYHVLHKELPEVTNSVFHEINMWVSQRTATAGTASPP
MEASURED METRIC: IC50 (nM)

- COMPOUND: "N#Cc1cc(CC2CC3(C2)CN(C(=O)N2CC4(CC(c5nc(C6CC(F)(F)C6)n[nH]5)C4)C2)C3)ccc1C(F)(F)F"
  READING UNIT: "nM"
  EXPERIMENTAL VALUE: 5.86

[A] N=S(=O)(c1cnn(CC2CC3(C2)CN(C(=O)N2CC4(CC(c5nc(C6CC6)n[nH]5)C4)C2)C3)c1)C(F)(F)F (stereo not shown)
[B] O=C(N1CCC(OCc2ccc(C(F)(F)F)cc2F)CC1)N1CC2(CC(c3nc(C4CC4)n[nH]3)C2)C1
[C] O=C(N1CC2(CC(Cn3ccc(C(F)(F)F)n3)C2)C1)N1CC2(CC(c3nc(C4(O)CC4)n[nH]3)C2)C1
Write the entries in order, lowest recorded IC50 first. Labels, requested order.
C, A, B

* * *

- TESTED TARGET: MAGL protein (Homo sapiens, UniProt Q99685)
- Sequence (Q99685 1-303): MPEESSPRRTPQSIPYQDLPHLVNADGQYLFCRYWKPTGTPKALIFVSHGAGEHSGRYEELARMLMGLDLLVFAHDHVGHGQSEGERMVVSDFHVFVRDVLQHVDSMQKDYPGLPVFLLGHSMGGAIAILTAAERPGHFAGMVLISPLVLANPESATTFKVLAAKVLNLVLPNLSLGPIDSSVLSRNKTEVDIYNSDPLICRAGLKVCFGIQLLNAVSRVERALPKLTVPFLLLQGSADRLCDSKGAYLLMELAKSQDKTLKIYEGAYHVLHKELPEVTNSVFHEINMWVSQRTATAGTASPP
pIC50: −log10 of the molar value.
MEASURED METRIC: pIC50

- COMPOUND: "CC(C)(C)Cc1nnc(C23CC(C4CN(C(=O)N5CC6(CC(c7nc(C8(O)CC8)n[nH]7)C6)C5)C4)(C2)C3)s1"
  TESTED TARGET: "MAGL protein (Homo sapiens, UniProt Q99685)"
  EXPERIMENTAL VALUE: 7.64

[a] O=C(N1CC2(CC(c3nc(C4CC4)n[nH]3)C2)C1)N1CC2(CN(Cc3cnn(C(F)F)c3)C2)C1
[b] O=C(N1CC2(CC(Oc3cnc(C(F)(F)F)cn3)C2)C1)N1CC2(CC(c3nnc(C4(O)CC4)[nH]3)C2)C1
[c] Cn1nc(CC2CC3(C2)CN(C(=O)N2CC4(CC(c5nc(C6(O)CC6)n[nH]5)C4)C2)C3)cc1C(F)(F)F
[d] O=C(N1CC2(CC(c3nnc(C4CC4)[nH]3)C2)C1)N1CC2(CCN(Cc3ccc(C(F)(F)F)cn3)C2)C1
[e] O=C(N1CC2(CC(Cc3cc(C(F)F)c[nH]c3=O)C2)C1)N1CC2(CC(c3nc(C4CC4)n[nH]3)C2)C1
Write the entries in order, lowest recorded pIC50 first. Labels, requested order.
a, b, d, e, c

[I] N=S(=O)(c1cccc(CC2CC3(C2)CN(C(=O)N2CC4(CC(c5ncn[nH]5)C4)C2)C3)c1)C(F)(F)F (centres unmarked)
[II] N#Cc1ncc(CC2CC3(C2)CN(C(=O)N2CC4(CC(c5nnc(C6CC6)[nH]5)C4)C2)C3)cc1C(F)(F)F
For this pair, I and II , which shows a numerically higher pIC50? Use the label to indicate which entry you chose.
II
(II: 9.19, I: 6.25)

* * *

Parameter IC50, tested on UniProt Q99685, listed per item.
MEASURED METRIC: IC50 (nM)

Previously resolved entries follow.
- COMPOUND: "O=C(N1CC2(CC(c3nc(C4CC4)n[nH]3)C2)C1)N1CC2(CN(Cc3coc(C(F)(F)F)n3)C2)C1 [compound 763]"
  TESTED TARGET: "UniProt Q99685"
  MEASURED METRIC: "IC50"
  READING UNIT: "nM"
  EXPERIMENTAL VALUE: 27.1
- COMPOUND: "O=C(N1CC2(CCC(Cc3cnc(C(F)(F)F)cn3)C2)C1)N1CC2(CC(c3nnc(C4CC4)[nH]3)C2)C1 (single isomer, unassigned) [compound 151]"
  TESTED TARGET: "UniProt Q99685"
  MEASURED METRIC: "IC50"
  READING UNIT: "nM"
  EXPERIMENTAL VALUE: 0.51
- COMPOUND: "O=C(N1CC2(CC(c3nnc(C4CC4)[nH]3)C2)C1)N1CC2(C1)CN(C(=O)C(F)(F)F)C2 [Example 217]"
  TESTED TARGET: "UniProt Q99685"
  MEASURED METRIC: "IC50"
  READING UNIT: "nM"
  EXPERIMENTAL VALUE: 3580
- COMPOUND: "N#Cc1cnn(CC2CC3(C2)CN(C(=O)N2CC4(CC(c5nc(C6CC6)n[nH]5)C4)C2)C3)c1 [compound 801]"
  TESTED TARGET: "UniProt Q99685"
  MEASURED METRIC: "IC50"
  READING UNIT: "nM"
  EXPERIMENTAL VALUE: 8.16
- COMPOUND: "O=C(N1CC2(CC(c3nc(C4CC4)n[nH]3)C2)C1)N1CC2(CN(Cc3ccn(CC(F)(F)F)c(=O)c3)C2)C1 [compound 426]"
  TESTED TARGET: "UniProt Q99685"
  MEASURED METRIC: "IC50"
  READING UNIT: "nM"
  EXPERIMENTAL VALUE: 274

[I] O=C(N1CC2(CC(Cc3ccc(F)cn3)C2)C1)N1CC2(CC(c3nnc(C4(O)CC4)[nH]3)C2)C1 [compound 44]
[II] O=C(N1CC(c2ccc(-n3cnc(C(F)(F)F)n3)cc2)C1)N1CC2(CC(c3nnc(C4CC4)[nH]3)C2)C1 [compound 930]
[III] O=C(N1CCC(c2nn(CCO)c3ccc(C(F)(F)F)cc23)CC1)N1CC2(CC(c3nnc(C4CC4)[nH]3)C2)C1 [compound 519]
Write the entries in order, lowest recorded IC50 first. Labels, requested order.
II, I, III
(II: 0.39 nM, I: 2.24 nM, III: 13.9 nM)

[A] N#Cc1ccc(CC2CC3(C2)CN(C(=O)N2CC4(CC(c5nc(C6(O)CC6)n[nH]5)C4)C2)C3)c(F)c1 [compound 752]
[B] O=C(N1CC2(CC(Cc3cc(C(F)(F)F)ncn3)C2)C1)N1CC2(CC(c3nc(C4CC4)n[nH]3)C2)C1 [compound 400]
[C] O=C(N1CC2(CC(Cc3nnc(C4(C(F)(F)F)CC4)o3)C2)C1)N1CC2(CC(c3nc(C4(F)CC4)n[nH]3)C2)C1 [compound 792]
[D] Cc1cc(C23CC(C4CN(C(=O)N5CC6(CC(c7nc(C8CC(F)(F)C8)n[nH]7)C6)C5)C4)(C2)C3)[nH]n1 [compound 975]
[E] O=C(N1CC2(CC(Oc3cc(C(F)(F)F)ccn3)C2)C1)N1CC2(CC(c3nc(C4CC4)n[nH]3)C2)C1 [compound 969]
Write the entries in order, lowest recorded IC50 first. Labels, requested order.
A, E, B, C, D
(A: 0.29 nM, E: 0.42 nM, B: 1.17 nM, C: 1.98 nM, D: 1550 nM)
